- study system: Acetylcholinesterase (Electrophorus electricus)
- assay context: at 2 mg/mL
- Description: Inhibition of electric eel AChE at 2 mg/ml by Ellman's method
experimental endpoint: inhibition (%)
Answer format: numeric, % implied, no suffix.

C[C@H]1CC[C@@H]2[C@@H](C)[C@H]3[C@H](C[C@H]4[C@@H]5CC=C6C[C@@H](O[C@@H]7O[C@H](CO)[C@H](O)[C@H](O[C@@H]8O[C@H](CO)[C@@H](O)[C@H](O)[C@H]8O)[C@H]7O[C@@H]7O[C@@H](C)[C@H](O)[C@@H](O)[C@H]7O)CC[C@]6(C)[C@H]5CC[C@]34C)N2C1; 9.15
CO[C@@]12[C@H](COC(N)=O)C3=C(C(=O)C(C)=C(N)C3=O)N1C[C@@H]1N[C@@H]12; 4.01
CCCCC[C@H](O)CC(=O)CCc1ccc(O)c(OC)c1; 1.06
CC(=O)C1=C(O)C=C2Oc3c(C(C)=O)c(O)c(C)c(O)c3[C@@]2(C)C1=O; 2.06
O=C(/C=C/C=C/c1ccc2c(c1)OCO2)N1CCCCC1; -0.1

Data request: Entry under review: `C[C@@H]1C[C@H]2CC[C@H](O2)[C@H](C)C(=O)O[C@@H](C)C[C@@H]2CC[C@@H](O2)[C@@H](C)C(=O)O[C@H](C)C[C@H]2CC[C@@H](O2)[C@H](C)C(=O)O[C@@H](C)C[C@@H]2CC[C@@H](O2)[C@@H](C)C(=O)O1` . Reported inhibition?
Data returned: 16.4

----------
- study system: Acetylcholinesterase (Electrophorus electricus) (UniProt O42275)
- Sequence (O42275 24-633 limits assumed): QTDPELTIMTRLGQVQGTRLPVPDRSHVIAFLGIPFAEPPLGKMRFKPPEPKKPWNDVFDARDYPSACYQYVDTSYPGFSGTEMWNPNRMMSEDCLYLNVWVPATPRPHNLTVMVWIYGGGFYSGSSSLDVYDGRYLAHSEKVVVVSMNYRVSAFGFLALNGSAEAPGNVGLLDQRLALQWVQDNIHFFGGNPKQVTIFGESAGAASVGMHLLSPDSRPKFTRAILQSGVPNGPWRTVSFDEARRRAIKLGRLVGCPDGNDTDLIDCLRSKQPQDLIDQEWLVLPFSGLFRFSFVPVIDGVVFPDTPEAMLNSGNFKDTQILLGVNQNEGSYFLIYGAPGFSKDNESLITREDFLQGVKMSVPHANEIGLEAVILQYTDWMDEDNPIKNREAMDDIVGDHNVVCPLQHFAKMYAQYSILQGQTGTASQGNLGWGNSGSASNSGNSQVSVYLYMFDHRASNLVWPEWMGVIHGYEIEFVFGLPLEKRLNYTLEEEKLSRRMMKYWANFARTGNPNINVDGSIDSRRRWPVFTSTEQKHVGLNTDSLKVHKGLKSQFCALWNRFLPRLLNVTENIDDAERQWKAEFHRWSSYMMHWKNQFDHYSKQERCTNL
- assay context: at 2 mg/mL
experimental endpoint: inhibition
The answer consists of two parts: a number and, after it, its unit.

Answered examples (5):
CC[C@@H](C)C(=O)O[C@H]1[C@H](O)[C@H]2[C@@H](CN3C[C@@H](C)CC[C@H]3[C@@]2(C)O)[C@@H]2C[C@]34O[C@]5(O)[C@@H](OC(=O)[C@](C)(O)[C@@H](C)O)CC[C@@]3(C)[C@@H]5[C@@H](OC(C)=O)[C@@H](OC(C)=O)[C@H]4[C@@]21O; -5.22%
C[C@@H]1C/C=C/C=C/C=C/C=C/[C@H](O[C@@H]2O[C@H](C)[C@@H](O)[C@H](N)[C@@H]2O)C[C@@H]2O[C@](O)(C[C@@H](O)C[C@H]3O[C@@H]3/C=C/C(=O)O1)C[C@H](O)[C@H]2C(=O)O; -4.37%
CN1C(=O)CC[C@H]1c1cccnc1; 28.6%
C[C@@]12C(=O)OC(=O)[C@]1(C)[C@H]1CC[C@@H]2O1; -7.81%
CO[C@H]1C[C@@H]2CC[C@@H](C)[C@@](O)(O2)C(=O)C(=O)N2CCCC[C@H]2C(=O)O[C@H]([C@H](C)C[C@@H]2CC[C@@H](O)[C@H](OC)C2)CC(=O)[C@H](C)/C=C(\C)[C@@H](O)[C@@H](OC)C(=O)[C@H](C)C[C@H](C)/C=C/C=C/C=C/1C; 18.7%

Data request: Entry under review: CN1[C@@H]2CC[C@H]1C[C@@H](OC(=O)C(CO)c1ccccc1)C2 (stereo partly drawn) . Reported inhibition?
Data returned: 15.2%

----------
inhibition overview
- study system: Acetylcholinesterase (Electrophorus electricus)
- assay context: at 2 mg/mL
Answer format: numeric, % implied, no suffix.

Answered examples (8):
CC(C)(O)CC[C@@H](O)[C@](C)(O)[C@H]1CC[C@@]2(O)C3=CC(=O)[C@@H]4C[C@@H](O)[C@@H](O)C[C@]4(C)[C@H]3CC[C@]12C; 3.26
CC1=C(C(=O)O)N2C(=O)[C@@H](NC(=O)[C@H](N)C3=CCC=CC3)[C@H]2SC1; -0.38
C[C@H]1CC[C@]2(NC1)O[C@H]1C[C@H]3[C@@H]4CC[C@H]5C[C@@H](O)CC[C@]5(C)[C@H]4CC[C@]3(C)[C@H]1[C@@H]2C; 11.4
COc1ccc2cc1Oc1ccc(cc1)C[C@H]1c3c(cc4c(c3Oc3cc5c(cc3OC)CCN(C)[C@@H]5C2)OCO4)CCN1C; 8.59
COc1ccc([C@@H]2CC(=O)c3c(O)cc(O)cc3O2)cc1O; -4.02
COc1c(C)c2c(c(O)c1C/C=C(\C)CCC(=O)O)C(=O)OC2; -6.25
CCn1cc(C(=O)O)c(=O)c2ccc(C)nc21; 0.82
COc1ccc2ccc(=O)oc2c1CC=C(C)C; 3.31

# input for lookup
Data request: Entry under review: `CC1=CC(=O)C2=C(C)CC[C@@H]3[C@H](OC(=O)[C@H]3C)[C@@H]12` . Reported inhibition?
Data returned: -3.63

----------
- study system: Acetylcholinesterase (Electrophorus electricus) (UniProt O42275)
- assay context: at 2 mg/mL
Parameter threshold = 10%. Response is fulfilled when inhibition meets or exceeds it, else not fulfilled.

Worked examples follow.
CCCCC1OC(=O)C2=CCCCC21 (stereo not given); not fulfilled
COc1cc(CNC(=O)CCCC/C=C/C(C)C)ccc1O; not fulfilled
C[C@@H]1O[C@@H](OC[C@H]2O[C@@H](Oc3cc(O)c4c(c3)O[C@H](c3ccc(O)cc3)CC4=O)[C@H](O)[C@@H](O)[C@@H]2O)[C@H](O)[C@H](O)[C@H]1O; fulfilled
O=C(O)Cc1c[nH]c2ccccc12; not fulfilled

Kindly consider the entry below.
Data request: Check this compound for inhibition at or above 10%: `CC[C@]12CCCN3CCc4c(n(c5ccccc45)C(=O)C1)[C@@H]32`
Data returned: fulfilled

----------
inhibition overview
- study system: Acetylcholinesterase (Electrophorus electricus) (UniProt O42275)
- assay context: at 2 mg/mL
Answer format: numeric, % implied, no suffix.

Answered examples (4):
C/C1=C/CCC(C)(O)/C=C\C(C(C)C)C(OC(=O)c2ccc(O)cc2)C1 (configuration not stated); 23.7
C[C@H]1[C@H]2CC[C@H]3[C@@H]4CC=C5C[C@@H](N(C)C)CC[C@]5(C)[C@H]4CC[C@]23CN1C; 29.9
C/C1=C\CC(C)(C)/C=C/C(=O)/C(C)=C/CC1; -4.84
CC(C)=CCC/C(C)=C/COc1ccc2ccc(=O)oc2c1; -3.79

Data request: Entry under review: `CO[C@@H]1[C@@H](OC)[C@H](C)[C@@](O)(CC(=O)O)O[C@H]1[C@H](C)[C@H]1O[C@@]2(CC[C@@](C)([C@H]3CC[C@@](C)([C@@H]4O[C@@H]([C@H]5O[C@](C)(O)[C@H](C)C[C@@H]5C)C[C@@H]4O[C@@H]4C[C@H](OC)[C@@H](OC)[C@H](C)O4)O3)O2)C[C@H](O)[C@H]1C` . Reported inhibition?
Data returned: 22.7

Data request: Entry under review: `O=c1c2ccccc2nc2n1CCc1c-2[nH]c2ccccc12` . Reported inhibition?
Data returned: -4

Data request: Entry under review: `COc1ccc(C[C@H]2c3cc(OC)c(OC)cc3CC[N+]2(C)C)cc1OC` . Reported inhibition?
Data returned: 28.5

----------
- study system: Cholinesterase (Equus caballus)
- assay context: at 2 mg/mL
- Description: Inhibition of horse BChE at 2 mg/ml by Ellman's method
experimental endpoint: inhibition (%)
Answer format: numeric, % implied, no suffix.

Answered examples (2):
COc1cc(/C=C/c2ccccc2)oc(=O)c1; -0.13
C=C1[C@@H](C)[C@H]2[C@H](Cc3ccccc3)NC(=O)[C@]23[C@H](OC(C)=O)/C=C/[C@@](C)(O)C(=O)[C@@H](C)C/C=C/[C@H]3[C@@H]1O; 3.92

Data request: Entry under review: `C[C@@H]1NCCc2cc(O)c(O)cc21` . Reported inhibition?
Data returned: -1.84

Data request: Entry under review: `COc1cc2c(c(OC)c1OC)-c1ccc(OC)c(=O)cc1[C@@H](NC=O)CC2` . Reported inhibition?
Data returned: -0.59

Data request: Entry under review: `COc1ccc2ccc(=O)oc2c1CC=C(C)C` . Reported inhibition?
Data returned: -0.19

----------
inhibition overview
- study system: Acetylcholinesterase (Electrophorus electricus) (UniProt O42275)
- assay context: at 2 mg/mL
Answer format: numeric, % implied, no suffix.

Answered examples (3):
C[C@@H]1O[C@@H](OC[C@H]2O[C@@H](Oc3c(-c4ccc(O)c(O)c4)oc4cc(O)cc(O)c4c3=O)[C@H](O)[C@@H](O)[C@@H]2O)[C@H](O)[C@H](O)[C@H]1O; -0.25
CC1(C)O[C@H]2CC(=O)OC[C@]23[C@H]2CC[C@@]4(C)[C@H](c5ccoc5)OC(=O)[C@H]5O[C@]54[C@]2(C)C(=O)C[C@@H]13; -0.85
O=c1c(-c2ccc(O)cc2)coc2cc(O[C@@H]3O[C@H](CO)[C@@H](O)[C@H](O)[C@H]3O)cc(O)c12; 24.6

# input for lookup
Data request: Entry under review: `CC[C@H]1CN2CCc3cc(OC)c(OC)cc3[C@@H]2C[C@@H]1C[C@H]1NCCc2cc(OC)c(OC)cc21` . Reported inhibition?
Data returned: 13.7
